molecular target: Neuromedin-K receptor (Homo sapiens); assay: Agonist activity at NK3R (unknown origin) transfected in CHO cells assessed as calcium influx […]
Sequence (P29371 whole entry): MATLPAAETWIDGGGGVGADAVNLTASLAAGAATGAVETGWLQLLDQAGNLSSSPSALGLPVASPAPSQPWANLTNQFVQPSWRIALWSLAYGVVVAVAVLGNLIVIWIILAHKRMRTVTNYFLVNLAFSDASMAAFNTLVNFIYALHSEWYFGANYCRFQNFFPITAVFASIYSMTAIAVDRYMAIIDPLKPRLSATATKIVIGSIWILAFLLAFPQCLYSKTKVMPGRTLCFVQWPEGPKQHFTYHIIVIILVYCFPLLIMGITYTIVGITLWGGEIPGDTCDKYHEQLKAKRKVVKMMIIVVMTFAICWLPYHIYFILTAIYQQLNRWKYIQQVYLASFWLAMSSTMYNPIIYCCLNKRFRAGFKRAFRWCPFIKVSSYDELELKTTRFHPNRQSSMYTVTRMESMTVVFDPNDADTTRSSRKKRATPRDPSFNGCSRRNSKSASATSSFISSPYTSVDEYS
Residues, ends and D or L forms follow the SMILES beside them.
Measurement label: EC50 (nM)
Dear colleague, please return just the value in nM, with no unit written.

# count of solved cases: 6
Molecule: CSCC[C@H](NC(=O)[C@H](CC(C)C)NC(=O)CNC(=O)[C@H](Cc1ccc(O)cc1)NC(=O)[C@H](Cc1ccccc1)NC(=O)[C@H](CCCCN)NC(=O)[C@H](CC(N)=O)NC(=O)[C@@H]1CCCN1C(=O)[C@H](CC(=O)O)NC(=O)[C@H](C)NC(=O)[C@@H]1CCC(=O)N1)C(N)=O
Result unit: nM
EC50: 3.36

Molecule: CSCC[C@H](NC(=O)[C@H](CC(C)C)NC(=O)CNC(=O)[C@H](Cc1ccccc1)N(C)C(=O)[C@H](Cc1ccccc1)NC(=O)CNC(=O)[C@H](CC(=O)O)NC(=O)[C@H](Cc1cnc[nH]1)NC(=O)[C@H](CCSC)NC(=O)[C@@H](N)CC(=O)O)C(N)=O (HELM PEPTIDE1{D.M.H.D.G.F.[meF].G.L.M.[am]}$$$$V2.0)
Result unit: nM
EC50: 0.036

Molecule: CSCC[C@H](NC(=O)[C@H](CC(C)C)NC(=O)CNC(=O)[C@H](Cc1ccccc1)N(C)C(=O)[C@H](Cc1ccccc1)NC(=O)[C@H](C)NC(=O)[C@H](CC(=O)O)NC(=O)[C@H](CCCCN)NC(=O)[C@H](CO)NC(=O)[C@@H]1CCCN1C(=O)[C@@H]1CCC(=O)N1)C(N)=O (HELM PEPTIDE1{[Glp].P.S.K.D.A.F.[meF].G.L.M.[am]}$$$$V2.0)
Result unit: nM
EC50: 0.071

Molecule: CC[C@H](C)[C@H](NC(=O)[C@H](Cc1ccccc1)NC(=O)[C@H](CC(=O)O)NC(=O)[C@H](CC(=O)O)NC(=O)[C@H](CCCCN)NC(=O)[C@H](CO)NC(=O)[C@@H]1CCCN1C(=O)[C@@H]1CCC(=O)N1)C(=O)NCC(=O)N[C@@H](CC(C)C)C(=O)N[C@@H](CCSC)C(N)=O (HELM PEPTIDE1{[Glp].P.S.K.D.D.F.I.G.L.M.[am]}$$$$V2.0)
Result unit: nM
EC50: 0.0054

Molecule: CSCC[C@H](NC(=O)[C@H](CC(C)C)NC(=O)CNC(=O)[C@H](Cc1ccccc1)N(C)C(=O)[C@H](Cc1ccccc1)NC(=O)[C@H](CCCCN)NC(=O)[C@H](CC(=O)O)NC(=O)[C@H](Cc1cnc[nH]1)NC(=O)[C@H](CCSC)NC(=O)[C@@H](N)CC(=O)O)C(N)=O (HELM PEPTIDE1{D.M.H.D.K.F.[meF].G.L.M.[am]}$$$$V2.0)
Result unit: nM
EC50: 0.026

Molecule: CSCC[C@H](NC(=O)[C@H](CC(C)C)NC(=O)CNC(=O)[C@H](Cc1ccc(O)cc1)NC(=O)[C@H](Cc1ccccc1)NC(=O)[C@H](CCC(=O)O)NC(=O)[C@H](CC(=O)O)NC(=O)[C@@H]1CCCN1C(=O)[C@H](CC(N)=O)NC(=O)[C@@H]1CCCN1C(=O)[C@@H]1CCC(=O)N1)C(N)=O (HELM PEPTIDE1{[Glp].P.N.P.D.E.F.Y.G.L.M.[am]}$$$$V2.0)
Result unit: nM
EC50: 1.38

Which EC50 is reported with Neuromedin-K receptor (Homo sapiens) for this entry: CSCC[C@H](NC(=O)[C@H](CC(C)C)NC(=O)CNC(=O)[C@H](Cc1ccccc1)N(C)C(=O)[C@H](Cc1ccccc1)NC(=O)[C@H](CCC(N)=O)NC(=O)[C@H](CC(=O)O)NC(=O)[C@H](Cc1cnc[nH]1)NC(=O)[C@H](CCSC)NC(=O)[C@@H](N)CC(=O)O)C(N)=O (HELM PEPTIDE1{D.M.H.D.Q.F.[meF].G.L.M.[am]}$$$$V2.0) ?
0.043

Query EC50 on Neuromedin-K receptor (Homo sapiens) for CSCC[C@H](NC(=O)[C@H](CC(C)C)NC(=O)CNC(=O)[C@H](Cc1ccccc1)N(C)C(=O)[C@H](Cc1ccccc1)NC(=O)[C@H](CC(=O)O)NC(=O)[C@H](CC(N)=O)NC(=O)[C@@H]1CCCN1C(=O)[C@H](CC(=O)O)NC(=O)[C@H](C)NC(=O)[C@@H]1CCC(=O)N1)C(N)=O (HELM PEPTIDE1{[Glp].A.D.P.N.D.F.[meF].G.L.M.[am]}$$$$V2.0)
0.15

Request body: readout EC50, system Neuromedin-K receptor (Homo sapiens), query CSCC[C@H](NC(=O)[C@H](CC(C)C)NC(=O)CNC(=O)[C@H](Cc1ccccc1)N(C)C(=O)[C@H](Cc1ccccc1)NC(=O)[C@H](CC(=O)O)NC(=O)[C@H](CC(=O)O)NC(=O)CNC(=O)[C@@H](NC(=O)[C@@H](N)CC(=O)O)[C@@H](C)O)C(N)=O (HELM PEPTIDE1{D.T.G.D.D.F.[meF].G.L.M.[am]}$$$$V2.0) . Return the value.
0.11

What measured EC50 is associated with CSCC[C@H](NC(=O)[C@H](CC(C)C)NC(=O)CNC(=O)[C@H](Cc1ccccc1)N(C)C(=O)[C@H](Cc1ccccc1)NC(=O)[C@H](CCC(N)=O)NC(=O)[C@H](CC(=O)O)NC(=O)[C@H](CO)NC(=O)[C@H](CCCCN)NC(=O)[C@@H]1CCCN1C(=O)[C@@H](NC(=O)[C@@H](N)CC(=O)O)C(C)C)C(N)=O (HELM PEPTIDE1{D.V.P.K.S.D.Q.F.[meF].G.L.M.[am]}$$$$V2.0) on Neuromedin-K receptor (Homo sapiens)?
0.038

So what EC50 did CSCC[C@H](NC(=O)[C@H](CC(C)C)NC(=O)CNC(=O)[C@H](Cc1ccccc1)N(C)C(=O)[C@H](Cc1ccccc1)NC(=O)[C@H](Cc1ccc(O)cc1)NC(=O)[C@H](CC(=O)O)NC(=O)[C@H](Cc1cnc[nH]1)NC(=O)[C@H](CCSC)NC(=O)[C@@H](N)CC(=O)O)C(N)=O (HELM PEPTIDE1{D.M.H.D.Y.F.[meF].G.L.M.[am]}$$$$V2.0) get with Neuromedin-K receptor (Homo sapiens)?
0.072
